assayRemarks: Cytotoxicity against human BC1 cells by SRB assay
Format: functional, cell-based
parameterMeasured: IC50 (µg/mL)
Report only the number, with the unit µg/mL understood.

Ask: What value of IC50 has been recorded for this entry: CC(=O)OC[C@]12Oc3c(-c4ccc(O)c5c4O[C@@]4(COC(C)=O)C(=C(O)C[C@@H](C)[C@H]4OC(C)=O)C5=O)ccc(O)c3C(=O)C1=C(O)C[C@@H](C)[C@H]2OC(C)=O
Result: 0.51

Ask: What value of IC50 has been recorded for this entry: Cc1c2ccncc2c(C)c2c1[nH]c1ccccc12
Result: 0.6

Ask: What value of IC50 has been recorded for this entry: CC(=O)OC[C@]12Oc3ccc(-c4ccc(O)c5c4O[C@@]4(COC(C)=O)C(=C(O)C[C@@H](C)[C@H]4OC(C)=O)C5=O)c(O)c3C(=O)C1=C(O)C[C@@H](C)[C@H]2OC(C)=O
Result: 0.7
